Tested on: Klebsiella sp.
Assay: Antibacterial activity against Klebsiella sp. after 24 hrs by disk diffusion method
Assay type: functional
Details: Klebsiella sp., 24 h
List of MIC values.
# unit: µg/mL | format: bare number

In: For the compound CCC1=NNC(=O)C1SCc1ccccc1 (centres undefined) , give its measured MIC value.
Out: 6.25

In: Fill in reported MIC for this entry: CC(C)C1=NNC(=O)C1Sc1ccccc1 (centres undefined)
Out: 6.25

In: Kindly indicate its recorded MIC. Item: CC(C)CC1=NNC(=O)C1Sc1ccc(Cl)cc1 (centres undefined)
Out: 6.25

In: Give MIC for the following compound: CC(C)CC1=NN(C)C(=O)C1Oc1ccccc1 (centres undefined)
Out: 6.25
